These measurements were taken from paper PMC10165274.

- tested target: T1, Proliferating cell nuclear antigen, wild type (human, UniProt P12004 1-261)
- T1 construct: PCNA, human; untagged, expressed from the pET3c vector; Homotrimeric ring; also called PCNA-WT; PCNA; source: E. coli BLR-DE3, purified (S and Q HiTrap columns, Sephacryl-200 gel filtration)
- T1 sequence (P12004 whole entry): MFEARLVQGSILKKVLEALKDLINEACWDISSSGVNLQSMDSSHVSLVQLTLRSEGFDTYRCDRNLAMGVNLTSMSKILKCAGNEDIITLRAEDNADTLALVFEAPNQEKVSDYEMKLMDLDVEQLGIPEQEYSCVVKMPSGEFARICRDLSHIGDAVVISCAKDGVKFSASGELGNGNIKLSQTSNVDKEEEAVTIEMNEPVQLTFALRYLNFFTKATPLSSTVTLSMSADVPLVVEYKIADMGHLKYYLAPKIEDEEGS
- protocol details: ITC; peptide (FEN1 800 uM, pol δ p66 550 uM, RNaseH2B 750 uM) with 33 to 38 uM individual PCNA (not trimeric rings); 25 °C
- measurement setup: both partners purified
parameter: pKd
Give bare numbers, as −log10 of the molar value.

Worked examples follow.
{"binder": "DKSGMKSIDTFFGVKNKKKIGKV (PIP-box peptide of RNaseH2B; free C-terminus (-OH); printed with a blank after SID; source: synthetic peptide (21st Century Biochemicals)) [RNaseH2B PIP-box peptide]", "quantitative result": 5.01}
{"binder": "KANRQVSITGFFQRK (PIP-box peptide of the p66 subunit of DNA polymerase delta; also called pol δ p66; pol δ; source: synthetic peptide (21st Century Biochemicals)) [DNA polymerase delta p66 PIP-box peptide]", "quantitative result": 5.52}

Continue with the next binder.
Problem: Look up pKd: STQGRLDDFFKVTGSL (PIP-box peptide of Flap endonuclease 1 (FEN1); free C-terminus (-OH); source: synthetic peptide (21st Century Biochemicals)) [FEN1 PIP-box peptide]
Solution: 4.96
